biological target: T1, human plasma kallikrein (human, UniProt P03952 20-390; P03952 391-638); assay: Ki,app as an IgG, steady state enzyme kinetics, inhibition of human pKal
T1 construct: two disulfide linked chains; also called pKal; human pKal
T1 sequence (P03952 20-390, chain 1 of 2): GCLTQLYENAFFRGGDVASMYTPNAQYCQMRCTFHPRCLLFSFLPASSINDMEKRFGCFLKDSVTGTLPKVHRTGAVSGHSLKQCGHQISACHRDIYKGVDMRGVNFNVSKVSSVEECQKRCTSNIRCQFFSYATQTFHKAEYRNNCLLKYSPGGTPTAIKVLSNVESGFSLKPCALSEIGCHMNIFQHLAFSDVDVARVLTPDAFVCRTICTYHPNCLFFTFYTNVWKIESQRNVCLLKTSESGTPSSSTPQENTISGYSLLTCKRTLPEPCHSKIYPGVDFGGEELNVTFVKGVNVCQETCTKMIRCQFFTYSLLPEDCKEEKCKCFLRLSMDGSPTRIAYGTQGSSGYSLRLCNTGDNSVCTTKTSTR
T1 sequence (P03952 391-638, chain 2 of 2): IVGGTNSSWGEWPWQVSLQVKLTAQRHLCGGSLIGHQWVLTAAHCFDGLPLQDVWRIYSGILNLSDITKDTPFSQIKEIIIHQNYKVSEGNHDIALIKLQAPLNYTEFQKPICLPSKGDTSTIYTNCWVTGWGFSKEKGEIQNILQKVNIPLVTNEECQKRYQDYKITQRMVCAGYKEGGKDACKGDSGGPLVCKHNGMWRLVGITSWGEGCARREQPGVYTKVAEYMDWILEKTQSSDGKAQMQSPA
pKi: −log10 of the molar value.

binder	pKi
X67-F01 (IgG) (antibody, V domains shown, printed HC runs into CH1) VH: EVQLLESGGGLVQPGGSLRLSCAASGFTFSAYSMIWVRQAPGKGLEWVSYIRPSGGRTTYADSVKGRFTISRDNSKNTLYLQMNSLRAEDTAVYYCARGGLLLWQRELKSNYFDYWGQGTLVTVSS VL: DIQMTQSPSSLSAFVGDRVTITCRASQPIDNYLNWYHQKPGKAPKLLIYAASRLQSGVPSRLSGSGFGTDFTLTISSLQPEDFGNYYCQQSYTVPYTFGGGTKVEIR	9.05
X67-E04 (IgG) (antibody, V domains shown, printed HC runs into CH1) VH: EVQLLESGGGLVQPGGSLRLSCAASGFTFSAYSMIWVRQAPGKGLEWVSYIRPSGGRTTYADSVKGRFTISRDNSKNTLYLQMNSLRAEDTAVYYCARGGLLLWDRELKSNYFDYWGQGTLVTVSS VL: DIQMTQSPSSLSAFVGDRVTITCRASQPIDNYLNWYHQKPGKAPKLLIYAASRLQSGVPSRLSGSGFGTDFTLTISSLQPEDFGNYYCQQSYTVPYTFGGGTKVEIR	8.89
X67-G04 (IgG) (antibody, V domains shown, printed HC runs into CH1) VH: EVQLLESGGGLVQPGGSLRLSCAASGFTFSAYSMIWVRQAPGKGLEWVSYIRPSGGRTTYADSVKGRFTISRDNSKNTLYLQMNSLRAEDTAVYYCARGGLLLWARELKSNYFDYWGQGTLVTVSS VL: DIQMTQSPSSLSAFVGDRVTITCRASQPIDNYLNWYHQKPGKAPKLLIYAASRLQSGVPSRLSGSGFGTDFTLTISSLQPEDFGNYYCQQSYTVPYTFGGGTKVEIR	9.46
X67-D03 (IgG) (antibody, V domains shown, printed HC runs into CH1; also called 559A-X67-D03) VH: EVQLLESGGGLVQPGGSLRLSCAASGFTFSAYSMIWVRQAPGKGLEWVSYIRPSGGRTTYADSVKGRFTISRDNSKNTLYLQMNSLRAEDTAVYYCARGGLLLWNRELKSNYFDYWGQGTLVTVSS VL: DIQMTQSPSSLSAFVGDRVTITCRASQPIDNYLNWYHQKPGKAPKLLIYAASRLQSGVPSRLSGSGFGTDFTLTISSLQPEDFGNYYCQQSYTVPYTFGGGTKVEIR	10.00
